# TARGET_OR_SYSTEM: T1, O5-AA
# T1 chain: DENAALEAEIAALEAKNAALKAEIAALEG
# PROTOCOL_NOTES: two-hybrid library CCmax;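 further: natural log of median RNA to DNA barcode read ratio; higher means stronger binding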
# SETUP_CONDITIONS: mean of both orientations
PROPERTY_NAME: interaction score

Here are 3 binders together with their reported answers.
- BINDER: "DENAALEAKNAALKAKIAALKAKIAALKG [O2-AA]"
  interaction score: -1.37
- BINDER: "DKIAALKAEIAALEAENAALEAENAALEG [O11-AA]"
  interaction score: -1.47
- BINDER: "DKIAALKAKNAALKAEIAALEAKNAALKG [4H3016-AA]"
  interaction score: -0.896

1 = DEIAALEAKIAALKAENAALEAENAALEG [O3-AA]
2 = DKIAALKAEIAALEAKNAALKAKNAALKG [O4-AA]
3 = DKNAALKAKIAALKAKNAALKAEIAALEG [O13-AA]
4 = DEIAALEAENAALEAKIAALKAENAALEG [4H171-AA]
Could you please sort these 4 entries by interaction score from high to low? Please list the labels in the order you were asked to rank them.
4, 3, 2, 1
(4: -0.0194, 3: -0.257, 2: -0.641, 1: -1.22)

Every entry's value here was drawn from paper PMC10397247.
